meta.source: ChEMBL document CHEMBL1125118

Target: Polyunsaturated fatty acid 5-lipoxygenase (Rattus norvegicus)
Sequence (P12527 whole entry): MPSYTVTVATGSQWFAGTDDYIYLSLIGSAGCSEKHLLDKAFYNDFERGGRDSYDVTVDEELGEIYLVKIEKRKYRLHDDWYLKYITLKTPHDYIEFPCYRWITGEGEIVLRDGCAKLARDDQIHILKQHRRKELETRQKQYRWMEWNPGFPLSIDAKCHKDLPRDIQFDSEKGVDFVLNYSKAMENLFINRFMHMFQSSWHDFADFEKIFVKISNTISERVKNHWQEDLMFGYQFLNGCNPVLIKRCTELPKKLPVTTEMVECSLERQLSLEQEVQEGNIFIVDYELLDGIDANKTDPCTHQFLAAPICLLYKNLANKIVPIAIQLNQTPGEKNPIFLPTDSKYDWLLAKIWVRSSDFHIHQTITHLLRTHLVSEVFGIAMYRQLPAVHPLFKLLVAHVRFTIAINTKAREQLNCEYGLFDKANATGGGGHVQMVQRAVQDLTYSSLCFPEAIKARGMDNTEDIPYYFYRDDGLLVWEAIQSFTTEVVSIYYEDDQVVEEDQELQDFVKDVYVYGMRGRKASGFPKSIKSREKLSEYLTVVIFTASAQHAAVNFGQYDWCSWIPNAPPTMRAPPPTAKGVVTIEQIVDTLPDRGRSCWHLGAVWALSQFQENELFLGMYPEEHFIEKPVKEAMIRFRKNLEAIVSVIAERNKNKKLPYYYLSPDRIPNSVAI
Assay: In vitro inhibitory activity against 5-Lipoxygenase in rat by Peritoneal 5-lipoxygenase assay
property.name: IC50

• CCOC(=O)C(=CC=C(SC)C(=O)c1ccccc1)N(C)C = > 50 µM
